Biological target: SIRT1 (Homo sapiens)
Sequence (Q96EB6 1-747): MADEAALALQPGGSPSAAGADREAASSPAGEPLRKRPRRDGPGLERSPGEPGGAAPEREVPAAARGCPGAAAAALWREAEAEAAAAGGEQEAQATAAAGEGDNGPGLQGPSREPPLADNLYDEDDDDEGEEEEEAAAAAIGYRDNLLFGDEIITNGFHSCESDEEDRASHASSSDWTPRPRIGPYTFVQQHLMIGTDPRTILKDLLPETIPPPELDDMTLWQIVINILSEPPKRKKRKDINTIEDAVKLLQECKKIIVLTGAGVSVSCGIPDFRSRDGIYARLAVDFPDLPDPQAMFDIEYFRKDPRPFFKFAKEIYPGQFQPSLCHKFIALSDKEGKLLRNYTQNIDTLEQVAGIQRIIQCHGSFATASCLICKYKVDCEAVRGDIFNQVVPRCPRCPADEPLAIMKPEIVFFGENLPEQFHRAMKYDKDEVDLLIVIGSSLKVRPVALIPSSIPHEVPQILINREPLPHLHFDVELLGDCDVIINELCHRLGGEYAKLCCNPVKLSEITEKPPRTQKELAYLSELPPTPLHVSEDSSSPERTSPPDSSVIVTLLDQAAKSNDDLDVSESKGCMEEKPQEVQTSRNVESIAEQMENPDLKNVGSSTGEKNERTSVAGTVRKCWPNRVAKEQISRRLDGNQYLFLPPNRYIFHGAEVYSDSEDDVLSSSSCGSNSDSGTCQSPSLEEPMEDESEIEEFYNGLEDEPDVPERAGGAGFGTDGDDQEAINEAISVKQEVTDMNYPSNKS
Test: Mass spectrometry based SIRT1 deacetylase activation assay (acetylated p53-derived peptide substrate)
Format: biochemical
quantity: EC1.5

{"columns": ["smiles record", "quantity", "reported value"],
 "data": [
  ["O=C(Nc1nccs1)c1cccc2[nH]c(-c3ccccc3C(F)(F)F)nc12", "EC1.5", "A (EC1.5<1.0 uM)"],
  ["Cc1nc(NC(=O)c2cccc3[nH]c(-c4ccccc4C(F)(F)F)nc23)sc1C", "EC1.5", "A (EC1.5<1.0 uM)"]
]}

* * *

target: SIRT1 (Homo sapiens); assay: Mass spectrometry based SIRT1 deacetylase activation assay (acetylated p53-derived peptide substrate); type: biochemical
quantity: EC1.5

{"columns": ["smiles record", "quantity", "reported value"],
 "data": [
  ["Cc1nc(NC(=O)c2cccc3[nH]c(-c4cccc(C(F)(F)F)c4)nc23)sc1C", "EC1.5", "A (EC1.5<1.0 uM)"],
  ["Cc1cc(-c2nc3c(C(=O)Nc4nccs4)cccc3[nH]2)no1", "EC1.5", "A (EC1.5<1.0 uM)"],
  ["O=C(Nc1nccs1)c1cccc2[nH]c(-c3cccc(C(F)(F)F)c3F)nc12", "EC1.5", "C (EC1.5 >25 uM)"],
  ["Cn1nc(C(F)(F)F)c(-c2nc3c(C(=O)Nc4cccnc4)cccc3[nH]2)c1Cl", "EC1.5", "A (EC1.5<1.0 uM)"]
]}

Kindly note: SIRT1 (Homo sapiens), O=C(Nc1nccs1)c1cccc2[nH]c(-c3cccnc3N3CCNCC3)nc12 , EC1.5 value reported: B (EC1.5 1-25 uM)

Kindly note: SIRT1 (Homo sapiens), O=C(Nc1nccs1)c1cccc2[nH]c(-c3ccnc(Cl)c3)nc12 , EC1.5 value reported: A (EC1.5<1.0 uM)

Kindly note: SIRT1 (Homo sapiens), O=C(Nc1cnccn1)c1cccc2[nH]c(-c3cccc(C(F)(F)F)c3)nc12 , EC1.5 value reported: A (EC1.5<1.0 uM)

Kindly note: SIRT1 (Homo sapiens), O=C(Nc1ccncc1)c1cccc2[nH]c(-c3ccc(Cl)cc3C(F)(F)F)nc12 , EC1.5 value reported: A (EC1.5<1.0 uM)

* * *

biological target: SIRT1 (Homo sapiens, UniProt Q96EB6); test: Mass spectrometry based SIRT1 deacetylase activation assay (acetylated p53-derived peptide substrate); type: biochemical
quantity: EC1.5

{"columns": ["compound", "reported value"],
 "data": [
  ["O=C(Nc1cccnc1)c1cccc2[nH]c(-c3cccc(CN4CCOCC4)c3)nc12 [Compound 350]", "B (EC1.5 1-25 uM)"],
  ["O=C(Nc1nccs1)c1cccc2[nH]c(-c3cccc(Oc4ccccc4)c3)nc12 [Compound 224]", "B (EC1.5 1-25 uM)"],
  ["O=C(Nc1nccs1)c1cccc2[nH]c(-c3cccc(OC(F)(F)F)c3)nc12 [Compound 204]", "A (EC1.5<1.0 uM)"],
  ["Cc1cnc(NC(=O)c2cccc3[nH]c(-c4ccccc4C(F)(F)F)nc23)s1 [Compound 343]", "A (EC1.5<1.0 uM)"]
]}

Origin of values: patent US8846947B2
